tested on: SNU-C1; assay: cells; assay type: cell-based; details: read-out: Basal_Viability ATP SNU-C1
pIC50: −log10 of the molar value.
Listed next: entries and their corresponding pIC50.

compound: CC(=O)Oc1ccc(C2(c3ccc(OC(C)=O)cc3)Oc3ccccc3NC2=O)cc1 [Bisoxatin diacetate]
result: < 4.70
//
compound: O=C([O-])CN(CCN(CC(=O)[O-])CC(=O)O)CCN(CC(=O)[O-])CC(=O)O.[Gd+3]
result: < 4.70

Proceeding to the next compound to report its pIC50.
Query block: Return pIC50 measured with SNU-C1 given this compound: CCC(COC(=O)c1cc(OC)c(OC)c(OC)c1)(c1ccccc1)N(C)C (stereo not drawn)
Result block: 5.61
